# assayDetails: Cytotoxicity assay, HeLa
# Assay type: cell-based
# condition: human, HeLa cells, DMEM + 10% fetal bovine serum, 37 °C, WST-8, absorbance 450 nm, read-out: Cytotoxic activity, IC50
*1 amine or outer side, *2 acyl side, *3 side chain or, on linkers, in order; H or OH if unused. Where a SMILES comes first, the peptide text is derived from it. [ ]: non-standard residue; d: D form. X1 = CCC(C)CCCCCCCCCC[C@H](CC(=O)[*:2])N[*:1]
quantityMeasured: IC50 at 48 h (µM)
One number for each entry, in µM.

Any idea what IC50 at 48 h was measured for CCC(C)CCCCCCCCCC[C@@H]1CC(=O)N[C@@H](CC(N)=O)C(=O)N[C@H](Cc2ccc(O)cc2)C(=O)N[C@H](CC(N)=O)C(=O)N[C@@H](CCC(N)=O)C(=O)N2CCC[C@H]2C(=O)N[C@H](CC(N)=O)C(=O)N[C@@H](CO)C(=O)N1 (stereo partly shown) [Compound 4, Iturin A8] (cyclo(N[dY][dN]QP[dN]S[X1])) ?
5.6

* * *

# Tested on: Aspergillus flavus KCTC 6984
# assayDetails: Antifungal assay (MIC), Aspergillus flavus
# Type: cell-based
# condition: Aspergillus flavus; potato dextrose broth; 2% of overnight cultures; 28 °C, 72 h; lowest concentration preventing visible growth
*1 amine or outer side, *2 acyl side, *3 side chain or, on linkers, in order; H or OH if unused. Where a SMILES comes first, the peptide text is derived from it. [ ]: non-standard residue; d: D form. X1 = CCC(C)CCCCCCCCCC[C@H](CC(=O)[*:2])N[*:1]
quantityMeasured: MIC (µg/mL)
Answers are plain numbers, in µg/mL.

Any idea what MIC was measured for CCC(C)CCCCCCCCCC[C@@H]1CC(=O)N[C@@H](CC(N)=O)C(=O)N[C@H](Cc2ccc(O)cc2)C(=O)N[C@H](CC(N)=O)C(=O)N[C@@H](CCC(N)=O)C(=O)N2CCC[C@H]2C(=O)N[C@H](CC(N)=O)C(=O)N[C@@H](CO)C(=O)N1 (stereo partly shown) [Compound 4, Iturin A8] (cyclo(N[dY][dN]QP[dN]S[X1])) ?
12.5

* * *

# System: Penicillium griseofulvum KCTC 6435
# assayDetails: Antifungal assay (MIC), Penicillium griseofulvum
# Format: cell-based
# condition: Penicillium griseofulvum; potato dextrose broth; 2% of overnight cultures; 28 °C, 72 h; lowest concentration preventing visible growth
# Method: The following microorganisms were used as test strains in the assay; Aspergillus flavus KCTC 6984, Neurospora crassa KCTC 6079, Candida tropicalis KCTC 7830, Candida albicans KCTC 7678, Fusarium oxysporum f. sp. cucumerinum KCTC 6084, Alternaria brassicicola ATCC 96836 and Penicillium griseofulvum KCTC 6435. Potato dextrose broth (Difco Laboratories) was used for a test medium. […] The MIC values were determined as the lowest concentration of each compound that prevented visible growth.
*1 amine or outer side, *2 acyl side, *3 side chain or, on linkers, in order; H or OH if unused. Where a SMILES comes first, the peptide text is derived from it. [ ]: non-standard residue; d: D form. X1 = CCC(C)CCCCCCCCCC[C@H](CC(=O)[*:2])N[*:1]; X2 = CC(C)CCCCCCCCCCC[C@H](CC(=O)[*:2])N[*:1]; Hyp = O=C(O)[C@@H]1C[C@@H](O)CN1
quantityMeasured: MIC (µg/mL)
Give bare numbers, in µg/mL.

The examples below pair each entry with its known result.
| compound | assayedSystem | MIC [µg/mL] |
| --- | --- | --- |
| CCC(C)CCCCCCCCCC[C@@H]1CC(=O)N[C@@H](CC(N)=O)C(=O)N[C@H](Cc2ccc(O)cc2)C(=O)N[C@H](CC(N)=O)C(=O)N[C@@H](CCC(N)=O)C(=O)N2C[C@H](O)C[C@H]2C(=O)N[C@H](CC(N)=O)C(=O)N[C@@H](CO)C(=O)N1 (stereo partly shown) [Compound 2, Iturin F2] (cyclo(N[dY][dN]Q[Hyp][dN]S[X1])) | Penicillium griseofulvum KCTC 6435 | 3.125 |
| CC(C)CCCCCCCCCCC[C@@H]1CC(=O)N[C@@H](CC(N)=O)C(=O)N[C@H](Cc2ccc(O)cc2)C(=O)N[C@H](CC(N)=O)C(=O)N[C@@H](CCC(N)=O)C(=O)N2CCC[C@H]2C(=O)N[C@H](CC(N)=O)C(=O)N[C@@H](CO)C(=O)N1 [Compound 3, Iturin A9] (cyclo(N[dY][dN]QP[dN]S[X2])) | Penicillium griseofulvum KCTC 6435 | 6.25 |

Please state, for each entry, its recorded MIC.
1. CCC(C)CCCCCCCCCC[C@@H]1CC(=O)N[C@@H](CC(N)=O)C(=O)N[C@H](Cc2ccc(O)cc2)C(=O)N[C@H](CC(N)=O)C(=O)N[C@@H](CCC(N)=O)C(=O)N2CCC[C@H]2C(=O)N[C@H](CC(N)=O)C(=O)N[C@@H](CO)C(=O)N1 (stereo partly shown) [Compound 4, Iturin A8] (cyclo(N[dY][dN]QP[dN]S[X1]))
2. CC(C)CCCCCCCCCCC[C@@H]1CC(=O)N[C@@H](CC(N)=O)C(=O)N[C@H](Cc2ccc(O)cc2)C(=O)N[C@H](CC(N)=O)C(=O)N[C@@H](CCC(N)=O)C(=O)N2C[C@H](O)C[C@H]2C(=O)N[C@H](CC(N)=O)C(=O)N[C@@H](CO)C(=O)N1 [Compound 1, Iturin F1] (cyclo(N[dY][dN]Q[Hyp][dN]S[X2]))

6.25
3.125
